# Test system: Neuronal progenitor cell
# method_summary: Induction of neurogenesis in human H9-derived neuronal progenitor cells at 10 uM assessed as increase in Tuj1 positive cells
# Format: functional
The source made the active and inactive calls. The calls are words filed in the database; no cut-off is given here.
parameter_measured: fold change (FC)

Here is how some molecules turned out for fold change (FC).
1) N#Cc1cccc(COc2ccc3c(c2)CN2C(=O)CN(C4CCN(CC(F)F)CC4)C(=O)[C@H]2C3)c1 | inactive
2) N#Cc1cccc(COc2ccc3c(c2)CN2C(=O)CN(C4CCN(CC(F)(F)F)CC4)C(=O)[C@H]2C3)c1 | inactive
3) N#Cc1cccc(COc2ccc3c(c2)CN2C(=O)CN(C4CCOCC4)C(=O)[C@H]2C3)c1 | inactive
4) N#Cc1cccc(COc2ccc3c(c2)CN2C(=O)CN(C4CCCC4)C(=O)[C@@H]2C3)c1 | inactive
5) N#Cc1cccc(COc2ccc3c(c2)CN2C(=O)CN(C4CCNCC4)C(=O)[C@H]2C3)c1 | inactive

Next molecule, fold change (FC) to be filled in.
Returns the measured fold change (FC) for the input molecule. Input: N#Cc1cccc(COc2ccc3c(c2)CN2C(=O)[C@H](CO)N(C4CCCC4)C(=O)[C@H]2C3)c1
inactive

* * *

# System: Plasma
# method_summary: Plasma concentration in C57BL/6 mouse at 13.4 mg/kg, ip
# Type: ADME, organism-based
# stated_conditions: in vivo
parameter_measured: concentration (µM)
Provide the reading as a plain figure in µM.

I have this compound here, N#Cc1cccc(COc2ccc3c(c2)CN2C(=O)CN(C4CCCC4)C(=O)[C@H]2C3)c1 , and I need its recorded concentration.
8.4

* * *

# method_summary: Ratio of drug level in brain to plasma in C57BL/6 mouse at 1.81 mg/kg, po
# Format: ADME, organism-based
# stated_conditions: read-out: BPR
parameter_measured: Kp

Look up Kp for this compound: N#Cc1cccc(COc2ccc3c(c2)CN2C(=O)CN(C4CCCC4)C(=O)[C@H]2C3)c1
0.1

* * *

Each entry below carries its recorded fold change (FC).
# method_summary: Induction of neurogenesis in human H9-derived neuronal progenitor cells at 10 uM assessed as increase in Tuj1 positive cells
# Type: functional, Neuronal progenitor cell
API note: the answer field is a bare number with no unit suffix.

Would you please look over these solved cases?
1. N#Cc1csc(COc2ccc3c(c2)CN2C(=O)CN(C4CCCC4)C(=O)[C@H]2C3)c1 | 1.74
2. CCN(Cc1cccc(C#N)c1)c1ccc2c(c1)CN1C(=O)CN(C3CCCCC3)C(=O)[C@H]1C2 | 1.45
3. N#Cc1cccc(COc2ccc3c(c2)CN2C(=O)[C@@H](CO)N(C4CCCC4)C(=O)[C@H]2C3)c1 | 2.36

Looking for the measured fold change (FC) of COC[C@H]1C(=O)N2Cc3cc(OCc4cccc(C#N)c4)ccc3C[C@@H]2C(=O)N1C1CCCC1 , can you help?
1.55

Any idea what its fold change (FC) is? The molecule is N#Cc1cccc(COc2ccc3c(c2)CN2C(=O)CN(CC4CC4)C(=O)[C@H]2C3)c1
1.57

What does the data say about its fold change (FC)? Entry: COC[C@@H]1C(=O)N2Cc3cc(OCc4cccc(C#N)c4)ccc3C[C@@H]2C(=O)N1C1CCCC1
2.36

Fill in: fold change (FC) of CN(Cc1cccc(C#N)c1)c1ccc2c(c1)CN1C(=O)CN(C3CCCCC3)C(=O)[C@H]1C2 is ___
1.67

Using the record for N#Cc1cccc(COc2ccc3c(c2)CN2C(=O)CN(C4CCCC4)C(=O)[C@H]2C3)c1 , report its fold change (FC).
2.35

Param item = N#Cc1cccc(COc2ccc3c(c2)CN2C(=O)CN(C4CCCCC4)C(=O)[C@H]2C3)c1 ; retrieve measured fold change (FC).
2.02

Param item = N#Cc1cccc(COc2ccc3c(c2)CN2C(=O)CN(C4CCNCC4(F)F)C(=O)[C@H]2C3)c1 (some centres undefined) ; retrieve measured fold change (FC).
1.78

GET /values?readout=fold change (FC)&item= CCNC(=O)c1cccc(COc2ccc3c(c2)CN2C(=O)CN(C4CCCC4)C(=O)[C@H]2C3)c1
1.65

Where do the numbers come from? From ChEMBL document CHEMBL3603820.
